Tested on: U937
Set-up: species or system AML cell lines (8); Primary HTS, single concentration about 10 uM, Cell Titer Glo viability; log10 luminescence, per cent inhibition relative to cycloheximide control
Condition: 72 h, relative to cycloheximide control, log10 luminescence; inhibitor
Peptide text beside a SMILES is read from it.
Assay Endpoint: U937 %inh (%)
The figure you give is taken to be in %; do not add the unit.

Q. Tell me the measured U937 %inh of NC(=O)c1ccc2c(-c3ccnc(NCCCO)n3)c(-c3ccc(F)cc3)nn2c1 [SJ000573349-1, U15445/74/1] , please.
A. 3.919

Q. // same read-out, input: CCNC(=O)[C@@H]1CCCN2C(=O)CC[C@H](NC(=O)[C@H](Cc3ccc(OP(=O)(O)O)cc3)NC(C)=O)C(=O)N12 [SJ000581112-1]
A. 0.08443

Q. // same read-out, input: CCN1CCC(CC(=O)Nc2n[nH]c3nc(-c4cccs4)c(Br)cc23)CC1 [SJ000573264-1, AG201339-025C2]
A. 1.142

Q. // same read-out, input: CC(C)C[C@H](N)C(=O)N[C@H](C(=O)N[C@H](C(=O)N[C@@H](Cc1ccc(O)cc1)C(=O)N1CCC[C@H]1C(=O)N[C@@H](Cc1c[nH]c2ccccc12)C(=O)N[C@H](C(=O)O)[C@@H](C)O)C(C)C)C(C)C [SJ000556698-1, SPINORPHIN] (H-LVVYPWT-OH)
A. 0.1872

Q. // same read-out, input: Cn1cc(C2=C(c3c([S+](C)[O-])n(C)c4ccccc34)C(=O)NC2=O)c2ccccc21 (stereo not drawn) [SJ000581040-1]
A. 0.5237

Q. // same read-out, input: COC(=O)Nc1nc2cc(Oc3ccc(NC(=O)Nc4cccc(Br)c4)cc3)ccc2[nH]1 [SJ000573266-1, T261/62/3]
A. 79.03

* * *

Tested on: MV4-11
Set-up: species or system AML cell lines (8); Primary HTS, single concentration about 10 uM, Cell Titer Glo viability; log10 luminescence, per cent inhibition relative to cycloheximide control
Condition: 72 h, relative to cycloheximide control, log10 luminescence; inhibitor
Assay Endpoint: MV4-11 %inh (%)
The figure you give is taken to be in %; do not add the unit.

Q. Tell me the measured MV4-11 %inh of CCCN1CCC(Oc2cc(Nc3nc(Nc4cccc(F)c4C(N)=O)c4cc[nH]c4n3)c(OC)cc2Cl)CC1 , please.
A. -2.06

Q. // same read-out, input: Cc1ccc2c(c1)c(C1=C(c3cn(C)c4ccccc34)C(=O)NC1=O)cn2C
A. 11.84

Q. // same read-out, input: COc1cccc(-c2c[nH]c3c(N/N=C/c4ccncc4)ncnc23)c1
A. 58.64

Q. // same read-out, input: CN(C)CCOc1ccc(-c2nc(-c3ccncc3)c(-c3ccc4c(c3)CC/C4=N\O)[nH]2)cc1
A. 2.418

Q. // same read-out, input: CCS(=O)(=O)c1ccc(OC)c(Nc2ncc(-c3cccc(C(C)=O)c3)o2)c1
A. 66.42

Q. // same read-out, input: COc1cccc(-n2ncc3c(N/N=C/c4ccc(C)cc4)ncnc32)c1
A. -1.749

Q. // same read-out, input: CC1=Nc2ccc(Cl)cc2S(=O)(=O)N1 [SJ000285438-7, DIAZOXIDE]
A. -7.128

* * *

System: CHRF288-11
Parameters: species or system AML cell lines (8); Primary HTS, single concentration about 10 uM, Cell Titer Glo viability; log10 luminescence, per cent inhibition relative to cycloheximide control
Condition: 72 h, relative to cycloheximide control, log10 luminescence; inhibitor
I'd appreciate it if you could supply CHRF288-11 %inh values for the items below.

Q. Tell me the measured CHRF288-11 %inh of Cn1cc(C2=C(c3ccccc3C(F)(F)F)C(=O)NC2=O)c2ccccc21 , please.
A. 19.74%

Q. // same read-out, input: CN[C@H](C#Cc1c(F)ccc2c1/C(=C/c1[nH]ccc1OC)C(=O)N2)CO
A. 59.49%

Q. // same read-out, input: COc1cc[nH]c1/C=C1\C(=O)Nc2ccc(F)c(C#C[C@@H](O)[C@@H](N)[C@@H](C)O)c21
A. 61.95%

Q. // same read-out, input: Nc1[nH]nc2nnc(-c3c(-c4ccccc4)nn4ccccc34)cc12
A. 4.206%

Q. // same read-out, input: CC(=O)Nc1ccc2c(C3=C(c4cn(C)c5ccccc45)C(=O)NC3=O)cn(C)c2c1
A. 123.6%

Q. // same read-out, input: O=C1NC(=O)C(c2c[nH]c3ccccc23)=C1c1ccccc1
A. 16.2%

Q. // same read-out, input: O=C(Nc1n[nH]c2nc(-c3ccc(O)cc3)c(Br)cc12)C1CC1
A. 61.88%

Q. // same read-out, input: Cc1cn([C@@H]2C[C@@H](O)[C@H](CO)O2)c(=O)[nH]c1=O
A. 5.146%

* * *

Tested on: U937
Parameters: species or system AML cell lines (8); Primary HTS, single concentration about 10 uM, Cell Titer Glo viability; log10 luminescence, per cent inhibition relative to cycloheximide control
Condition: 72 h, relative to cycloheximide control, log10 luminescence; inhibitor
Assay Endpoint: U937 %inh (%)
The figure you give is taken to be in %; do not add the unit.

Q. Tell me the measured U937 %inh of Nc1c(C(=O)c2cccc(OCCN3CCOCC3)c2)cnn1-c1ccc(F)cc1 , please.
A. 7.007

Q. // same read-out, input: NS(=O)(=O)c1cccc(Nc2cc(-c3ccc(F)cc3)n[nH]2)c1
A. -2.237

Q. // same read-out, input: CCc1c(C)nc2sc3c(N)ncnc3c2c1C
A. 2.164

Q. // same read-out, input: Cn1c(=O)c(-c2ccccc2Cl)cc2cnc(NC3CCOCC3)nc21
A. 4.292

Q. // same read-out, input: CC(=O)N1CCC(Nc2ncc3cc(Oc4ccc(F)cc4F)c(=O)n(C)c3n2)CC1
A. 4.841

* * *

System: ML-2
Parameters: species or system AML cell lines (8); Primary HTS, single concentration about 10 uM, Cell Titer Glo viability; log10 luminescence, per cent inhibition relative to cycloheximide control
Condition: 72 h, relative to cycloheximide control, log10 luminescence; inhibitor
Assay Endpoint: ML-2 %inh (%)
The figure you give is taken to be in %; do not add the unit.

Q. Tell me the measured ML-2 %inh of CN1CCN(C(=O)c2ccc(NC(=O)Nc3ccc(N(C)c4ccnc(Nc5ccc(CS(C)(=O)=O)cc5)n4)cc3)cc2)CC1 , please.
A. 10.8

Q. // same read-out, input: CNCCCn1cc(C2=C(c3cn(C)c4ccccc34)C(=O)NC2=O)c2ccccc21
A. 2.284

Q. // same read-out, input: CC(=O)N[C@@H](Cc1ccc(OP(=O)(O)O)cc1)C(=O)N[C@H]1CCC(=O)N2CCC[C@@H](C(=O)NCc3cccc4ccccc34)N2C1=O
A. -1.495

Q. // same read-out, input: CNC(=O)c1cncc(/C=C/c2ccccc2Cl)c1
A. 26.34

* * *

Test system: U937
Assay Remarks: Secondary dose-response HTS, Cell Titer Glo
Type: cell-based, human
Condition: Homo sapiens, U-937; secondary high-throughput screen; U937; read-out: average effective concentration, U937
I'd appreciate it if you could supply log10 of EC50 values for the items below.
# values: log10(EC50), units µM

Q. Tell me the measured log10 of EC50 of CN(C)c1ccc2nc3ccc(=[N+](C)C)cc-3sc2c1 , please.
A. 1.00

Q. // same read-out, input: CS(=O)(=O)N1CCc2c(-c3cnc(N)nc3)nc(N3CCOCC3)nc21
A. 0.60

Q. // same read-out, input: CC(C(=O)Nc1cccc(/N=C/c2c(O)ccc3ccccc23)c1)c1ccccc1 (centres unmarked) [SALERMIDE]
A. 0.82

Q. // same read-out, input: CCN(CC)Cc1ccc2cc(COC(=O)Nc3ccc(C(=O)NO)cc3)ccc2c1
A. -1.26

Q. // same read-out, input: CON(C)C(=O)N1N=C(c2cc(F)ccc2F)S[C@@]1(CCCN)c1ccccc1 [ARRY-520, reference compound]
A. -3.00

Q. // same read-out, input: CN1CCC(CNc2ccc3ncc(-c4cccc(OC(F)(F)F)c4)n3n2)CC1
A. 1.00

Q. // same read-out, input: CCc1c2c(nc3ccc(OC(=O)N4CCC(N5CCCCC5)CC4)cc13)-c1cc3c(c(=O)n1C2)COC(=O)[C@]3(O)CC
A. 1.00

* * *

Test system: MOLM-13
Assay Remarks: cells
Design: species or system AML cell lines (8); Secondary HTS, 10-point dose-response in triplicate, Cell Titer Glo viability, four-parameter fit EC50
Condition: Homo sapiens, MOLM-13, 72 h, read-out: MOLM-13
Assay Endpoint: EC50

Q. Tell me the measured EC50 of S=c1[nH]cnc2nc[nH]c12 , please.
A. > 10000 nM

Q. // same read-out, input: O=C(c1cn(Cc2cncn2Cc2ccc(Br)cc2)cc1-c1cccc2ccccc12)N1CCOCC1
A. 2500 nM

Q. // same read-out, input: CON(C)C(=O)N1N=C(c2cc(F)ccc2F)S[C@@]1(CCCN)c1ccccc1
A. > 10000 nM

Q. // same read-out, input: Nc1ncnc2c1ncn2[C@@H]1C=C(CO)[C@@H](O)[C@H]1O
A. 360 nM

Q. // same read-out, input: CC(C)n1c(/C=C/C(O)CC(O)CC(=O)O)c(-c2ccc(F)cc2)c2ccccc21 (centres unmarked)
A. > 10000 nM

This collection of values is drawn from paper PMC6522510.
